Consider the following IC50 values measured on Human immunodeficiency virus type 1 protease (Human immunodeficiency virus 1).
Give bare numbers, in nM.

Solved cases below.
smiles_data=CC(C)(C)NC(=O)[C@@H]1CN(Cc2cc(Br)cs2)CCN1C[C@@H](O)C[C@@H](Cc1ccncc1)C(=O)N[C@H]1c2ccccc2C[C@H]1O result=0.11
smiles_data=CC(C)(C)NC(=O)[C@@H]1CN(Cc2c(F)cccc2F)CCN1C[C@@H](O)C[C@@H](Cc1cccnc1)C(=O)N[C@H]1c2ccccc2C[C@H]1O result=0.14

Now take the following compound into account.
Exercise: Please respond with reported IC50 (system Human immunodeficiency virus type 1 protease (Human immunodeficiency virus 1)) for "CC(C)(C)NC(=O)[C@@H]1CN(Cc2cc3sccc3s2)CCN1C[C@@H](O)C[C@@H](Cc1cccnc1)C(=O)N[C@H]1c2ccccc2C[C@H]1O" .
Key: 0.09
